src = ChEMBL document CHEMBL1201862

Catalogue of GI50 readings, one per entry.
System: HCT-15

Illustrative cases are given below, each with its answer.
In [3]: df
Out[3]:
                                   compound  reported_result
0  O=C1c2ccc3c4ccccc4n(-c4ccccc4)c3c2C(=O)N1c1ccc(Cl)cc1         > 100 µM
1    CCN(CC)c1ccc2cc(-c3csc(C)n3)c(=O)oc2c1         > 100 µM
2    COc1c(C)c(O)c2c(=O)cc(-c3ccccc3)oc2c1C         > 100 µM

Incoming: Recall the recorded GI50 for "CCc1ccc(CCC(=O)O)nc1" with HCT-15 and state it.
Outgoing: > 100 µM

Incoming: Also need "Clc1ccccc1C(n1cc(Br)cn1)n1cc(Br)cn1" , thanks.
Outgoing: > 10 µM

Incoming: Another compound to look at: "CC(=O)Nc1ccc2c(c1)C(=O)c1ccccc1-2"
Outgoing: > 100 µM

Incoming: Another compound to look at: "O=[N+]([O-])c1ccc2c(c1)c1nn2CCCCOc2nn(c3ccc([N+](=O)[O-])cc23)CCCCO1"
Outgoing: > 100 µM

Incoming: Now consider "Cc1cc(NC(=S)Nc2ccccc2)c(NC(=S)Nc2ccccc2)cc1C" .
Outgoing: 13.8 µM

Incoming: For CC(=O)OCC1OC(OCc2ccccc2)C(Br)C(OC(C)=O)C1OC(C)=O (stereo not given) then?
Outgoing: > 100 µM

Incoming: Another: "CCC1C(C#N)=C(O)NC(O)=C1C#N"
Outgoing: > 100 µM

Incoming: Would you mind doing CCN(CC)CCCCC1CCN(CC(=O)N2CC(C)C(=O)Nc3ccccc32)CC1 (stereo not given) as well?
Outgoing: > 100 µM

Incoming: Repeat for the following compound: "COC1(OC)CCCCCCCCC(OC)(OC)CCCCCCCC1"
Outgoing: > 100 µM

Incoming: Same for CCOP1(=O)C=C(C)C(Cl)=C(C)C1 (stereo not given)
Outgoing: 23.3 µM

Incoming: Next: "COc1ccc2c(c1)-c1c(c3ccccc3n1CCN1CCOCC1)CC2"
Outgoing: 25.9 µM

Incoming: Follow-up entry: CC(=O)OC1CCC2(C)C(CCC3C2CC(=O)C2(C)C3CC(N3CC3)C2C(C)=O)C1 (stereo not given)
Outgoing: 18.9 µM

---

The entries below come with measured GI50 values attached.
Test system: NCI-H226
Test: NCI tumour cell line growth inhibition, 48 h
Activity calls are given as the source filed them. No stated cut-off is given here; in the data, active = GI50 up to about 1.1 µM and inactive = higher.

Worked cases, answers included:
>>> print(df.to_string())
                                   molecule  value_type      reported_result
0                  O=C1CCC(=O)C1=NNc1ccccc1        GI50  > 100 µM (inactive)
1                N#CCCC[Si]12OCCN(CCO1)CCO2        GI50  > 100 µM (inactive)
2  N=C1OC(c2cccc(Cl)c2)C(NNS(=O)(=O)c2ccccc2)=C1O (stereo not drawn)        GI50   43.9 µM (inactive)
3  CC1C2CC=CC(=O)[C@@]2(C)CCC12OCCO2 (stereo partly drawn)        GI50  > 100 µM (inactive)
4           CCCCOc1c(C(=O)O)cc(Br)cc1C(=O)O        GI50  > 100 µM (inactive)
5  O=C(Nc1ccccc1C(=O)NCCCO)/C(=C/c1ccccc1O)NC(=O)c1ccccc1        GI50   39.3 µM (inactive)
6  O=C1NC(O)CCN1C1CC(O)C(CO)O1 (stereo not drawn)        GI50  > 100 µM (inactive)
7    CCN(CC)c1ccc2cc(-c3csc(C)n3)c(=O)oc2c1        GI50   57.4 µM (inactive)

Incoming: Form field - read-out: GI50; system: NCI-H226; submitted item: CC1(c2nc3cc(Cl)c(Cl)cc3[nH]2)CCC(C(=O)O)C(C)(C)O1 (stereo not drawn)
Outgoing: > 100 µM (inactive)

Incoming: Record: "Cc1cc(C)c2c(=O)n(CN3CCC(O)(c4ccccc4)CC3)sc2n1"
Outgoing: > 100 µM (inactive)

Incoming: Repeat with CCC1(c2ccncc2)CCC(=O)NC1=O (stereo not drawn) [ROGLETIMIDE]
Outgoing: > 100 µM (inactive)
